# PROCEDURE TEXT: HRP/luminol detection interference without ALR, dose response, artefact control for ALR inhibitor project, biochemical, luminescence, no ALR or DTT, cherry-pick (AID 540356)
# REPORTED CONDITIONS: HRP/H2O2 luminol luminescence counterscreen; series mostly up to 10 µM
Out of some 2,500 compounds screened, about 360 (14%) were called active.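 Rule for the calls: active = signal-lowering compounds whose fitted half-maximal concentration AC50 is no higher than ten times their top tested concentration; inconclusive = flat curve with 30 to 70% inhibition, or poor fit; inactive = flat within 30%, signal increase, or AC50 above limit.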 Not all results are given here.
Outcomes you can answer with include only these: T = active, F = inactive

These solved cases illustrate the format of a correct answer.
STRUCTURE	CLASS LABEL
Cc1cccc(C(=O)Nc2ccc(O)cc2)c1	F
CCn1c(-c2ccc(N)cc2)nc2ccccc21	F
Oc1cc(O)cc(/C=C/c2ccc(O)c(O)c2)c1	T
COc1ccccc1NS(=O)(=O)c1cc([N+](=O)[O-])ccc1N/N=C/c1c[nH]c2ccccc12	F
O=Cc1ccc(O)c(O)c1	F

Which result was noted for this compound in the test: `Nn1c(Nc2ccccc2)nc2sc3c(c2c1=O)CCCC3` F

Which result was noted for this compound in the test: `c1ccc(CNc2ncnc3sc4c(c23)CCCC4)nc1` F

Which result was noted for this compound in the test: `Cc1ccsc1C=Nc1ccc(O)cc1` F

Which result was noted for this compound in the test: `Oc1ccc(/C=N/N=C/c2ccc(O)c(O)c2)cc1O` T

Which result was noted for this compound in the test: `COc1cc(/C=C/c2ccc(O)cc2)cc(OC)c1` F

---

# PROCEDURE TEXT: HRP/luminol detection interference without ALR, dose response, artefact control for ALR inhibitor project, biochemical, luminescence, no ALR or DTT, cherry-pick (AID 540356)
# REPORTED CONDITIONS: HRP/H2O2 luminol luminescence counterscreen; series mostly up to 10 µM
The whole screen tested about 2,500 compounds, of which about 360 (14%) were called active.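 How the source made its calls: active means signal-lowering compounds whose fitted half-maximal concentration AC50 is no higher than ten times their top tested concentration; inconclusive means flat curve with 30 to 70% inhibition, or poor fit; inactive means flat within 30%, signal increase, or AC50 above limit.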 Only a sample is shown.
Outcomes you can answer with include only these: class 1 for active, class 0 for inactive

COMPOUND	CLASS LABEL
S=c1[nH]nc(-c2ccc(Cl)cc2)n1-c1ccc(Cl)cc1	class 0
Cc1ccc(NNC(=O)c2ccno2)cc1Cl	class 1
COc1ccc(-c2csc(Nc3ccc(S(=O)(=O)Nc4cc(C)on4)cc3)n2)cc1	class 0
Cc1ccc(NCCC(=O)c2cccs2)cc1C	class 0
C=CCn1c(-c2ccc(N)cc2)nc2ccccc21	class 0

Which result was noted for this compound in the test: `Cc1ccc(NNC(=O)c2ccno2)cc1C` class 1

Which result was noted for this compound in the test: `CCn1c(-c2ccc(Cl)cc2)n[nH]c1=S` class 0

Which result was noted for this compound in the test: `NNC(=O)c1cc(-c2ccccc2)sc1N` class 0

---

# PROCEDURE TEXT: HRP/luminol detection interference without ALR, dose response, artefact control for ALR inhibitor project, biochemical, luminescence, no ALR or DTT, cherry-pick (AID 540356)
# REPORTED CONDITIONS: HRP/H2O2 luminol luminescence counterscreen; series mostly up to 10 µM
Among all 2,500 compounds or so, about 360 (14%) were called active.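 Rule for the calls: active = signal-lowering compounds whose fitted half-maximal concentration AC50 is no higher than ten times their top tested concentration; inconclusive = flat curve with 30 to 70% inhibition, or poor fit; inactive = flat within 30%, signal increase, or AC50 above limit.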 A selection follows.
Outcomes you can answer with include only these: yes (1) (active), no (0) (inactive)

These solved cases illustrate the format of a correct answer.
COMPOUND	CLASS LABEL
Nc1ccc2sc(N)nc2c1	no (0)
Nc1ccc(-c2nc3ccc([N+](=O)[O-])cc3[nH]2)cc1	no (0)
CC(C(=O)NC1C=CS(=O)(=O)C1)N1C(=O)/C(=C\c2ccccc2)SC1=S (centres undefined)	no (0)
Cc1ccc(Sc2ccc(S(=O)(=O)Nc3ccc(C(=O)O)cc3)cc2)cc1C	no (0)
Nc1ccc2oc(-c3cccs3)nc2c1	no (0)

Which result was noted for this compound in the test: COc1cccc(/C=N/NC(=O)CC2C(=O)NN=C2C)c1O (centres undefined) no (0)

Which result was noted for this compound in the test: `O=C(CCc1ccccc1)N1CCN(c2ccc(F)cc2)CC1` no (0)

Which result was noted for this compound in the test: `COc1ccccc1N1CCN(S(=O)(=O)c2cccc(F)c2)CC1` no (0)

Which result was noted for this compound in the test: `CCCn1c(CCC(=O)O)ccc1-c1cccs1` no (0)
